Biological target: Cyclin-dependent kinase 2/cyclin A (Homo sapiens, UniProt P24941)
Experiment: Inhibition of cyclin dependent kinase 2-cyclin A
measurement name: pIC50
Numbers only, as −log10 of the molar value.

>>> df
                                   compound  measurement_name  quantitative_readout
0  C[C@@H](C(=O)Nc1cc(C2CC2)[nH]n1)c1ccc(N2CCN(C)C2=O)cc1             pIC50                  5.07
1  C[C@@H](C(=O)Nc1cc(C2CC2)[nH]n1)c1ccc(N2CCCC2=O)cc1             pIC50                  5.60
2  C[C@H](C(=O)Nc1cc(C2CC2)[nH]n1)c1ccc(N2CCNC2=O)cc1             pIC50                  8.70
3  O=C(Nc1cc(C2CC2)[nH]n1)C(F)c1ccccc1 (stereo not given)             pIC50                  7.00

# map each compound to its pIC50
1. CO[C@H](C(=O)Nc1cc(C2CC2)n[nH]1)c1ccccc1
2. C[C@H](C(=O)Nc1cc(C2CC2)[nH]n1)c1ccccc1
3. CC(C(=O)Nc1cc(C2CC2)[nH]n1)c1ccc(N2CCN(Cc3ccccc3)C2=O)cc1 (stereo not given)
4. C[C@H](C(=O)Nc1cc(C2CC2)[nH]n1)c1ccc(N2CCN(C)C2=O)cc1
5. CC(C(=O)Nc1cc(C2CC2)[nH]n1)c1ccc(-n2cc[nH]c2=O)cc1 (stereo not given)
6. C[C@@H](C(=O)Nc1cc(C2CC2)[nH]n1)c1ccc(N2CCNC2=O)cc1
7. CC(C(=O)Nc1cc(C2CC2)[nH]n1)c1ccc(N2Cc3ccccc3C2=O)cc1 (stereo not given)

1. 5.70
2. 7.08
3. 5.84
4. 7.77
5. 7.96
6. 6.34
7. 7.89

Give pIC50 for each listed item.
1. CC(C(=O)Nc1cc(C2CC2)[nH]n1)c1ccc(N2CCCCC2=O)cc1 (stereo not given)
2. C[C@H](C(=O)Nc1cc(C2CC2)[nH]n1)c1ccc(N2CCCC2=O)cc1
3. CC(C(=O)Nc1cc(C2CC2)[nH]n1)c1ccc(N2C(=O)CNC2=O)cc1 (stereo not given)

1. 6.62
2. 7.43
3. 6.91
